experiment: Tumour pharmacokinetics: fenretinide and metabolite levels in plasma and tumours of xenografted mice; assay type: in vivo; conditions: female, NSG, mouse, plasma, oral; lung cancer xenograft mice, Bio-nFeR 100 mg/kg, Suppl. Table 5; read-out: Mean concentration (±sd), Plasma
assay endpoint: concentration at 3 h (ng/mL)

# molecule, obs value
records = [
    ("CC1=C(/C=C/C(C)=C/C=C/C(C)=C/C(=O)Nc2ccc(O)cc2)C(C)(C)CCC1 [4-HPR, 4-hydroxy (phenyl)retinamide, reference compound]", 3450),
]

* * *

Experiment: Plasma pharmacokinetics, acute study (single oral administration)
Format: in vivo, CD1 female mice
Settings: female, CD1, mouse, plasma, po, 10 mg/kg, plasma analyte, mice, single oral Bio-nFeR 10 mg/kg, Suppl. Table 2 A
Experimental: The experiments were performed in CD1 female mice, 7 weeks of age, (body weight 25 ± 2 g) obtained from Envigo RMS SrL (Udine, Italy). They were maintained under specific-pathogen-free conditions with constant temperature and humidity, according to institutional guidelines regularly checked by a certified veterinarian. […]

# molecule, Cmax / ng/mL
data = [
    ("CC1=C(/C=C/C(C)=C/C=C/C(C)=C/C(=O)Nc2ccc(O)cc2)C(C)(C)CCC1 [4-HPR, 4-hydroxy (phenyl)retinamide, reference compound]", 601),
]

Ref: paper PMC6706930
